# period change per entry
Protocol description: compounds altering circadian rhythm period length – cell-based, LOPAC library, luminescence reporter (AID 2774);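 also: values are relative to mean of DMSO wells on each plate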
Measurement conditions: circadian reporter cells, at 7 µM, actives lie on both sides
Active and inactive are the calls of the source. No rule for the calls is given here.

# count of solved cases: 5
>  <Molecule>
O=C(Nc1cc(C(=O)Nc2ccc(S(=O)(=O)O)cc2S(=O)(=O)O)cc(C(=O)Nc2ccc(S(=O)(=O)O)cc2S(=O)(=O)O)c1)Nc1cc(C(=O)Nc2ccc(S(=O)(=O)O)cc2S(=O)(=O)O)cc(C(=O)Nc2ccc(S(=O)(=O)O)cc2S(=O)(=O)O)c1

>  <period change>
-0.05 h (inactive)

$$$$
>  <Molecule>
O=C(O)[C@H]1NCCC[C@H]1C(=O)O

>  <period change>
0.06 h (inactive)

$$$$
>  <Molecule>
NC(=O)C(=O)O

>  <period change>
0.025 h (inactive)

$$$$
>  <Molecule>
COc1cc2nc(N3CC=[N+](C(=O)c4ccco4)CC3)nc(N)c2cc1OC

>  <period change>
0.01 h (inactive)

$$$$
>  <Molecule>
C=C[C@H]1CN2CCC1C[C@H]2[C@H](O)c1ccnc2ccc(OC)cc12 (some centres undefined)

>  <period change>
-0.145 h (inactive)

$$$$

query: Quickly give me recorded period change for Nc1ccc(N2C(=O)c3ccccc3C2=O)c(Cl)c1
result: 0.15 h (inactive)

query: Quickly give me recorded period change for N=C1Sc2ccccc2C2=NCCCN12
result: -0.035 h (inactive)

query: Quickly give me recorded period change for CC(C)[C@@H](CO)Nc1nc(Nc2cccc(Cl)c2)c2ncn(C(C)C)c2n1
result: -0.115 h (inactive)

query: Quickly give me recorded period change for CCn1c(=O)c2[nH]c(-c3ccccc3)nc2n(CC)c1=O
result: -0.165 h (inactive)

###

# z-score per entry
Protocol description: galactose survival enhancers in mitochondrial complex I cybrids – cell-based, galactose medium, ATP luminescence, primary screen (AID 1645843);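 also: positive z means more ATP and so rescue of galactose-driven cybrid death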
Measurement conditions: complex I mutant cybrid cells, 72 h, stronger effect = higher value
// keep it numeric: no unit symbol after the value

>  <Compound>
CC(=O)N1CCC(NCCOc2c(C)cccc2Cl)CC1

>  <z-score>
-0.35

$$$$
>  <Compound>
CCN1C(=O)N(C)C(=O)C12CCN(Cc1cc3oc(C)c(-c4ccccc4)c3cc1OC)CC2

>  <z-score>
1.74

$$$$
>  <Compound>
CC(N)=NCCCC[C@@H](N)C(=O)O

>  <z-score>
0.39

$$$$
>  <Compound>
CC1CN(CCCn2c3ccccc3c3ccccc32)CC(C)N1 (configuration not stated)

>  <z-score>
-1.61

$$$$
>  <Compound>
CCOC(=O)c1nn(Cc2ccccn2)c2c1CN(Cc1ccc(NC(C)=O)s1)CC2

>  <z-score>
0.55

$$$$

query: Quickly give me recorded z-score for O=C(O)CCC(=O)Nc1ccc(Br)cn1
result: 0.275

query: Quickly give me recorded z-score for O=C1CN(C(=O)Nc2nncs2)CCN1Cc1cccc(F)c1
result: -0.53

query: Quickly give me recorded z-score for CC1(C)SC2C(N=CN3CCCCCC3)C(=O)N2C1C(=O)O (configuration not stated)
result: 0.33

query: Quickly give me recorded z-score for Cc1csc2ncnc(-c3cccc4ncccc34)c12
result: -0.49

query: Quickly give me recorded z-score for COc1ccc2c(c1)C=C(CNc1cccnc1)CO2
result: 0.615

query: Quickly give me recorded z-score for CC(C)(C)CN1CCN(CC2CC2)C(CCO)C1 (configuration not stated)
result: 0.35

query: Quickly give me recorded z-score for Cc1nsc(NC(=O)N2CCCN(c3ccccc3)CC2)n1
result: -0.19

###

Protocol description: drug combination growth inhibition, ovarian cancer – cell-based, oncology-focused library, rucaparib conditional, profiling panel (AID 1508598)
Measurement conditions: patient-derived ovarian cancer cells, CellTiter-Glo viability, 144 h; at 0.313 µM; OCI-C5x cells; without rucaparib; stronger effect = lower value
# viability per entry
Provide the reading as a plain figure in %.

# count of solved cases: 3
>  <Compound>
C[C@H]1C[C@H]2[C@@H]3CCC4=CC(=O)C=C[C@]4(C)[C@@H]3C(=O)C[C@]2(C)[C@]1(O)C(=O)CO

>  <Quantitative readout>
125

$$$$
>  <Compound>
CC(=O)O[C@]12CO[C@@H]1C[C@H](O)[C@]1(C)C(=O)[C@H](O)C3=C(C)[C@H](OC(=O)[C@H](O)[C@@H](NC(=O)OC(C)(C)C)c4ccccc4)C[C@](O)([C@H](OC(=O)c4ccccc4)C21)C3(C)C (some centres undefined)

>  <Quantitative readout>
37.8

$$$$
>  <Compound>
CC(C)NCCCn1c(Sc2cc3c(cc2I)OCO3)nc2c(N)ncnc21

>  <Quantitative readout>
60.7

$$$$

Switching to the query record.
query: Quickly give me recorded viability for CCNC(=O)c1noc(-c2cc(Cl)c(O)cc2O)c1-c1ccc(OC)cc1
result: 22.6

###

Protocol description: growth inhibition, single agents and combos, HD-MB03, cell-based, BGB or cisplatin IC20 combos, synergistic combos for chromothripsis tumors (AID 1671455);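 also: 0% = vehicle DMSO and 100% = high DMSO as cytotoxic control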
Measurement conditions: HD-MB03 medulloblastoma cells, at 0.5 µM, stronger effect = higher value
Activity calls are given as the source filed them. Cut-off read from the data, not from the text of the source: active = inhibition above about 83%; inactive = the rest.
Quantity measured: inhibition

# count of solved cases: 4
>  <Molecule>
O=c1cc(-c2ccc(O)cc2)[nH]c(=S)[nH]1

>  <Result>
-13.4% (inactive)

$$$$
>  <Molecule>
Cc1cn(C2CC(O)C(COP(=O)(O)OP(=O)(O)OP(=O)(O)O)O2)c(=O)[nH]c1=O (stereo not given)

>  <Result>
10.7% (inactive)

$$$$
>  <Molecule>
C[C@@H]1COCCN1c1cc(C2(S(C)(=O)=O)CC2)nc(-c2cccc3[nH]ccc23)n1

>  <Result>
38% (inactive)

$$$$
>  <Molecule>
CC(Oc1cc(-c2cnn(C3CCNCC3)c2)cnc1N)c1c(Cl)ccc(F)c1Cl (stereo not given)

>  <Result>
3.43% (inactive)

$$$$

Switching to the query record.
query: Quickly give me recorded inhibition for NC(=O)c1cccc2cn(-c3ccc(C4CCCNC4)cc3)nc12 (stereo not given)
result: -5.6% (inactive)

###

Protocol description: viability loss with induced miR-34 in A549 – imaging, A549 dox-inducible miR-34, nuclei and caspase counts, primary screen (AID 1347080)
Measurement conditions: A549 miR-34 inducible, Hoechst nuclei count, 48 h; measured here: total cells without miR-34 induction
Quantity measured: cell count
// keep it numeric: no unit symbol after the value

query: Quickly give me recorded cell count for CC1(C)O[C@H]2CC(=O)OC[C@]23[C@H]2CC[C@@]4(C)C(c5ccoc5)OC(=O)C5O[C@]54[C@@]2(C)C(=O)C[C@@H]13 (some centres not stated)
result: 10000

query: Quickly give me recorded cell count for c1ccc2c(CCc3ccncc3)c[nH]c2c1
result: 8520

query: Quickly give me recorded cell count for OC[C@H]1OC(n2cnc3c(N[C@H]4CCC[C@@H]4O)ncnc32)[C@H](O)[C@@H]1O (some centres not stated)
result: 10500

query: Quickly give me recorded cell count for COc1ccc(C(=O)N2CCN(C(=O)c3ccc4sc(N)nc4c3)CC2)cc1
result: 9880

query: Quickly give me recorded cell count for O=C(C=Cc1ccccc1)NC(NC(=S)Nc1cccc2cccnc12)C(Cl)(Cl)Cl (configuration not stated)
result: 6920

query: Quickly give me recorded cell count for CCCCCCCCCC(=O)N[C@H](CN1CCOCC1)[C@H](O)c1ccccc1
result: 5620

query: Quickly give me recorded cell count for COc1ccc2c3c([nH]c2c1)[C@H]1C[C@H]2[C@H](C[C@@H](O)[C@H](OC)[C@H]2C(=O)O)CN1CC3
result: 9370

###

Protocol description: viability loss with induced miR-34 in A549 – imaging, A549 dox-inducible miR-34, nuclei and caspase counts, primary screen (AID 1347080)
Measurement conditions: A549 miR-34 inducible, Hoechst nuclei count, 48 h; measured here: total cells without miR-34 induction
Param label: returns MET when cell count < 9000, returns NOT MET otherwise, including exact equality.

>  <Molecule>
C=C[C@H]1CN2CCC1C[C@H]2[C@H](O)c1ccnc2ccc(OC)cc12 (some centres undefined)

>  <Cat>
MET

$$$$
>  <Molecule>
O=S(=O)(O)CCCN1CCOCC1

>  <Cat>
NOT MET

$$$$
>  <Molecule>
COC(=O)NC(C(=O)NC(Cc1ccccc1)C(O)CN(Cc1ccc(-c2ccccn2)cc1)NC(=O)C(NC(=O)OC)C(C)(C)C)C(C)(C)C (centres undefined)

>  <Cat>
MET

$$$$
>  <Molecule>
OCCCc1cn(C2CCN(c3nn4cnnc4c4ccccc34)CC2)nn1

>  <Cat>
NOT MET

$$$$
>  <Molecule>
COC1C=CO[C@@]2(C)Oc3c(C)c(O)c4c(O)c(c(C=NN5CCN(C)CC5)c(O)c4c3C2=O)NC(=O)C(C)=CC=CC(C)C(O)C(C)C(O)C(C)C(OC(C)=O)C1C (some centres undefined)

>  <Cat>
MET

$$$$

Note: attention shifts to another entry.
query: For this molecule, is cell count lower than 9000? COc1ccccc1S(=O)(=O)Nc1ccc2c(c1)CN(C)C(=O)N2
result: MET
